target: UniProt P20272; experiment: CB1 receptor binding, [3H]CP55940, whole rat brain membranes (Example 3); conditions: read-out: CB1 affinity Ki, listed as 0-2094
Assay Readout: pKi
The quantity pKi is defined as the negative base-10 logarithm of the molar concentration.

# input molecule: CCCCC/C=C\C/C=C\C/C=C\C/C=C\CCCC(=O)NCc1ccc(O)c(Cl)c1 ; wanted: its pKi
6.56

###

Recorded measurements of Ki, one per entry
Target: CB2 receptors (Rattus norvegicus)
Construct: rat spleen membranes, which contain mostly CB2 receptors; from tissue; host or cells: rat spleen membranes
Sequence (Q9QZN9 1-360): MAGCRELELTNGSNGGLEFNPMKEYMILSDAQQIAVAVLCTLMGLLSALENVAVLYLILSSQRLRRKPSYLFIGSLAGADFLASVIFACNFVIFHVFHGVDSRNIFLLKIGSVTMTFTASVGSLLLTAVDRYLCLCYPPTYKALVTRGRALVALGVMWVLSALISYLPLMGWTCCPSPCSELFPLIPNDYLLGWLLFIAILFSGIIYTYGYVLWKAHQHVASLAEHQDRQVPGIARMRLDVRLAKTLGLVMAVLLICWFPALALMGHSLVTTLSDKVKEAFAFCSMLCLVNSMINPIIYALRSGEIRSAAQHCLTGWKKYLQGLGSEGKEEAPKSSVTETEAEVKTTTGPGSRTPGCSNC
Experiment: CB2 binding, displacement of [3H]WIN55,212-2 from rat spleen membranes

Missing value: Ki, CB2 receptors (Rattus norvegicus), entry C[C@H](CO)NC(=O)CCC/C=C\C/C=C\C/C=C\C/C=C\C(C)(C)CCCCC#N . Fill in?
3.87 µM

Identify the measured Ki of CCCCCCC(C)(C)/C=C\C/C=C\C/C=C\C/C=C\CCCC(=O)NCc1ccc(O)c(OC)c1 for CB2 receptors (Rattus norvegicus).
> 10 µM

Given the entry C[C@H](CO)NC(=O)CCC/C=C\C/C=C\C/C=C\C/C=C\C(C)(C)CCCCBr , what Ki was observed with CB2 receptors (Rattus norvegicus)?
> 10 µM

What reported Ki corresponds to COc1cc(CNC(=O)CCC/C=C\C/C=C\C/C=C\C/C=C\C(C)(C)CCCCO)ccc1O on CB2 receptors (Rattus norvegicus)?
> 10 µM

Item COc1cc(CNC(=O)CCC/C=C\C/C=C\C/C=C\C/C=C\C(C)(C)CCCCC#N)ccc1O with CB2 receptors (Rattus norvegicus) - Ki?
5 µM

Item COc1cc(CNC(=O)CCC/C=C\C/C=C\C/C=C\C/C=C\C(C)(C)CCCCBr)ccc1O with CB2 receptors (Rattus norvegicus) - Ki?
> 10 µM

###

target: CB1 receptors (Rattus norvegicus); assay: Agonist-stimulated [35S]GTPγS binding, rat hippocampal membranes
Sequence (P20272 whole entry): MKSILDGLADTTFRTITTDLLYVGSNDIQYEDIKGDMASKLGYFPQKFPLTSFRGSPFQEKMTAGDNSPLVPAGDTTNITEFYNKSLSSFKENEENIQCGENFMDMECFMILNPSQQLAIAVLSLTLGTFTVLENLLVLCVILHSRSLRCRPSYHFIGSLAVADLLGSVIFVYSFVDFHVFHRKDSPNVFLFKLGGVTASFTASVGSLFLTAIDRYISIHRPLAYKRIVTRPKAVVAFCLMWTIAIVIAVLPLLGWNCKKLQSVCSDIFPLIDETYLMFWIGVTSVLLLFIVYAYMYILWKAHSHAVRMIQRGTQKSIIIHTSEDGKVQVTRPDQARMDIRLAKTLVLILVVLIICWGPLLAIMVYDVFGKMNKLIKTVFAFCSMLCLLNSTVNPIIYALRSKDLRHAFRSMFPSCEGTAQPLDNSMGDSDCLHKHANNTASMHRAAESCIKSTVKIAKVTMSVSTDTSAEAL
Assay Readout: pEC50
Just the number, please; pEC50 means minus log10 of the concentration in mol/L.

Substance Smiles: CCCCC/C=C\C/C=C\C/C=C\C/C=C\CCCC(=O)NCc1ccc(O)c(Cl)c1
System: CB1 receptors (Rattus norvegicus)
Assay Readout: pEC50
Measured: 6.88

Query compound follows.
So what's the measured pEC50 for this one? COc1cc(CNC(=O)CCC/C=C\C/C=C\C/C=C\C/C=C\C(C)(C)CCCCBr)ccc1O
7.15

###

target: human VR1 receptor (Homo sapiens); assay: Ca2+ influx (Fluo-3) in HEK-hVR1 cells (Example 2); format: cell-based; parameters: expressed in transfected cells; host or cells: HEK 293 cells (HEK-hVR1); settings: maximal concentration (usually 10 μM), percent of effect of 4 μM ionomycin
Sequence (Q8NER1 whole entry): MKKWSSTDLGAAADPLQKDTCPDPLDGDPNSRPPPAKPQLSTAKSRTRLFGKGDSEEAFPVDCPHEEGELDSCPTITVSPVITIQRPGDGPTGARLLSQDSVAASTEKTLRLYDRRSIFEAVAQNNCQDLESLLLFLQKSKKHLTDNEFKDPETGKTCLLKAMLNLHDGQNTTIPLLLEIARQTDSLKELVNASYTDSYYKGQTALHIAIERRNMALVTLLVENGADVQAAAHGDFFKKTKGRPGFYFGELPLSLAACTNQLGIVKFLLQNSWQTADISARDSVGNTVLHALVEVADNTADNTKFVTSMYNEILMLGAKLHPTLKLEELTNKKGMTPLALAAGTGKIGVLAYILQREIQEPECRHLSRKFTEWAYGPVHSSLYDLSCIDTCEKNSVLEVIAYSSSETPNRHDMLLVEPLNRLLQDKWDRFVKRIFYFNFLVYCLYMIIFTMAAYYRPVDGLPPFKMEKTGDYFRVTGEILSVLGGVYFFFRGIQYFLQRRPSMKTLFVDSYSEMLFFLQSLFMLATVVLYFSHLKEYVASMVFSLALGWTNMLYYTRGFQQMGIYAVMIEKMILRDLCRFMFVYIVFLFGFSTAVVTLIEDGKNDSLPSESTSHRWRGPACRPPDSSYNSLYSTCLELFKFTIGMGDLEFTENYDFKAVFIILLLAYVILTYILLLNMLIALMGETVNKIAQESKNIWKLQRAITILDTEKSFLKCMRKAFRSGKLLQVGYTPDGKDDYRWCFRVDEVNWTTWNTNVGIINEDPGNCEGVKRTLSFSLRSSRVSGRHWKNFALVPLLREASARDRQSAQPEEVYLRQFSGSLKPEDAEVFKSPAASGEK
Label Yes when VR1 efficacy is strictly below 60%; otherwise label No.

Some solved entries appear below for comparison.
Compound: CCCCCCC(C)(C)/C=C\C/C=C\C/C=C\C/C=C\CCCC(=O)NCc1ccc(O)c(OC)c1 [Compound O-1839]
System: human VR1 receptor (Homo sapiens)
Label: No
--
Compound: C[C@H](CO)NC(=O)CCC/C=C\C/C=C\C/C=C\C/C=C\C(C)(C)CCCCC#N [Compound O-1812]
System: human VR1 receptor (Homo sapiens)
Label: Yes
--
Compound: C[C@H](CO)NC(=O)CCC/C=C\C/C=C\C/C=C\C/C=C\C(C)(C)CCCCBr [Compound O-1860]
System: human VR1 receptor (Homo sapiens)
Label: Yes
--
Compound: COc1cc(CNC(=O)CCC/C=C\C/C=C\C/C=C\C/C=C\C(C)(C)CCCCO)ccc1O [Compound O-1856]
System: human VR1 receptor (Homo sapiens)
Label: No
--
Compound: COc1cc(CNC(=O)CCC/C=C\C/C=C\C/C=C\C/C=C\C(C)(C)CCCCBr)ccc1O [Compound O-1861]
System: human VR1 receptor (Homo sapiens)
Label: No
--
Compound: COc1cc(CNC(=O)CCC/C=C\C/C=C\C/C=C\C/C=C\C(C)(C)CCCCC#N)ccc1O [Compound O-1895]
System: human VR1 receptor (Homo sapiens)
Label: No

We next turn to a different compound, shown below.
Consider C[C@H](CO)NC(=O)CCC/C=C\C/C=C\C/C=C\C/C=C\C(C)(C)CCCCO [Compound O-1811] . Does its VR1 efficacy lie strictly below 60%?
No
